# Assayed System: CDK7/Cyclin H/MAT1 complex (Homo sapiens, UniProt P50613)
# Sequence (P50613 whole entry): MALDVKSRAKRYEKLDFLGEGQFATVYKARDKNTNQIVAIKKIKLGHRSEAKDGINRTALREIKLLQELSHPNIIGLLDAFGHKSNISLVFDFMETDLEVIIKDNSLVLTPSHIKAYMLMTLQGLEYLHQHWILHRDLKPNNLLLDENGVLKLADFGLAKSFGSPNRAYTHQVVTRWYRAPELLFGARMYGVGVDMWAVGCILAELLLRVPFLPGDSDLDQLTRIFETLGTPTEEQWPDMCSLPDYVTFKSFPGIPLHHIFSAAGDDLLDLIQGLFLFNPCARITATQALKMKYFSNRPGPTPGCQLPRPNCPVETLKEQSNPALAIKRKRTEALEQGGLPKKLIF
# Sequence (P51946 whole entry partner): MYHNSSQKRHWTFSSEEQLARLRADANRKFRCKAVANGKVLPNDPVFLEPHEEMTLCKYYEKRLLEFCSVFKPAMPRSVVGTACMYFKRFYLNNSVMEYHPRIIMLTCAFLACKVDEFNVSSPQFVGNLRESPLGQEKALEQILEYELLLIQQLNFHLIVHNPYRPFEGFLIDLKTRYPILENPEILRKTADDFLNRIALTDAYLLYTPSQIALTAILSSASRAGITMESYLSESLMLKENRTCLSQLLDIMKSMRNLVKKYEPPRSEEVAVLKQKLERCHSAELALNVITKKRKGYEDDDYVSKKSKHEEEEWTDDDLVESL
# Sequence (P51948 whole entry partner): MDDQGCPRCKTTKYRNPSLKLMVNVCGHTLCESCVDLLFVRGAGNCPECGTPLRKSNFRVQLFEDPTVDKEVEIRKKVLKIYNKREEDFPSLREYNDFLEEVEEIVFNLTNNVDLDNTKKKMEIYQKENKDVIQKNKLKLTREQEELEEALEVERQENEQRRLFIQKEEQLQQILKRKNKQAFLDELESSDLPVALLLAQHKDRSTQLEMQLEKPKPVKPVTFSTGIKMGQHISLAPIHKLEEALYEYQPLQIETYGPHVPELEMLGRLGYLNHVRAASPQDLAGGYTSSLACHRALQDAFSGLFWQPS
# Protocol Details: CDK7 kinase inhibition assay (Caliper/LabChip EZ Reader)
# Experimental Conditions: CDK7/Cyclin H/MAT1 6 nM, ATP 2 mM, 35 min at 27° C.
Test Readout: IC50

Worked examples, 3 compounds total:
Compound: CCOP(=O)(OCC)c1ccc2[nH]cc(-c3nc(NC4CCCNC4)ncc3C(F)(F)F)c2c1 (stereo not shown)
IC50: 0.02 to 0.2 µM
--
Compound: Clc1cnc(N[C@H]2CN3CCC2CC3)nc1-c1c[nH]c2ccccc12
IC50: ≥ 5 µM
--
Compound: Cc1ccc2[nH]cc(-c3nc(NC4CCCNC4)ncc3Cl)c2c1 (stereo not shown)
IC50: 0.02 to 0.2 µM

Now, please, on to the next compound.
Query for CDK7/Cyclin H/MAT1 complex (Homo sapiens, UniProt P50613): what IC50 does the record show for O=c1[nH]cc(-c2ccc3c(-c4nc(NC5CCCNC5)ncc4C(F)(F)F)c[nH]c3c2)c(=O)[nH]1 (stereo not shown) ? < 0.02 µM

----------
Listing of entries alongside the reported pIC50.
# Assayed System: CDK7/Cyclin H/MAT1 complex (Homo sapiens, UniProt P50613)
# Protocol Details: CDK7 kinase inhibition assay (Caliper/LabChip EZ Reader)
# Experimental Conditions: CDK7/Cyclin H/MAT1 6 nM, ATP 2 mM, 35 min at 27° C.
pIC50: −log10 of the molar value.

Molecule: FC(F)(F)c1cnc(N[C@H]2CCCNC2)nc1-c1c[nH]c2cc(-c3cccc4cnccc34)ccc12 [Compound 344]
pIC50: 6.70 to 7.70

Molecule: FC(F)(F)c1cnc(NC2CCCNC2)nc1-c1c[nH]c2cc(-c3cc[nH]n3)ccc12 (centres unmarked) [Compound 291]
pIC50: > 7.70

// query pIC50 value for entry Fc1cccc2c(-c3nc(NC4CCCNC4)ncc3Cl)c[nH]c12 (centres unmarked) [Compound 107] 6.70 to 7.70

Request: FC(F)(F)c1cnc(NC2CCCNC2)nc1-c1c[nH]c2c(Br)cccc12 (centres unmarked) [Compound 163] 6.70 to 7.70

Now give it for CC(C)n1cc(-c2nc(NC3CCCNC3)ncc2Cl)c2ccccc21 (centres unmarked) [Compound 127] too. 5.30 to 6.70

What about Fc1cc2[nH]nc(-c3nc(NC4CCCNC4)ncc3C(F)(F)F)c2cc1F (centres unmarked) [Compound 152] ? > 7.70

For Clc1cnc(N[C@H]2CCCNC2)nc1-c1n[nH]c2ccccc12 [Compound 174] then? > 7.70

Now try FC(F)n1ccc(-c2ccc3c(-c4nc(NC5CCCNC5)ncc4C(F)(F)F)c[nH]c3c2)n1 (centres unmarked) [Compound 289] . 6.70 to 7.70

Try CC1(C)CCNC[C@@H]1Nc1ncc(C(F)(F)F)c(-c2c[nH]c3ccccc23)n1 [Compound 209] next. 5.30 to 6.70

What do you get for Clc1cnc(NC2CCCNC2)nc1-c1c[nH]c2ncccc12 (centres unmarked) [Compound 118] ? > 7.70

Then what about the molecule CC1CNCC(Nc2ncc(Cl)c(-c3c[nH]c4ccccc34)n2)C1 (centres unmarked) [Compound 201] ? > 7.70

Would you mind doing CCOP(C)(=O)c1cccc2c(-c3nc(NC4CCCNC4)ncc3C(F)(F)F)c[nH]c12 (centres unmarked) [Compound 179] as well? > 7.70

And for Cn1ncc2ccc(-c3ccc4c(-c5nc(NC6CCCNC6)ncc5C(F)(F)F)c[nH]c4c3)cc21 (centres unmarked) [Compound 337] ? 6.70 to 7.70

What do you get for CCc1cnc(NC2CCCNC2)nc1-c1n[nH]c2ccc(C)cc12 (centres unmarked) [Compound 120] ? 5.30 to 6.70

# repeat for COCCn1cc(-c2nc(NC3CCCNC3)ncc2C(F)(F)F)c2ccccc21 (centres unmarked) [Compound 123] 6.70 to 7.70

Next molecule up: Cc1ccncc1-c1ccc2c(-c3nc(NC4CCCNC4)ncc3C(F)(F)F)c[nH]c2c1 (centres unmarked) [Compound 336] > 7.70

Record: CCC(=O)NC1CNCC(Nc2ncc(C(F)(F)F)c(-c3c[nH]c4c(S(C)(=O)=O)cccc34)n2)C1 (centres unmarked) [Compound 259] > 7.70

----------
# Assayed System: CDK2/Cyclin E1 complex (Homo sapiens)
# Protocol Details: CDK2 kinase inhibition assay (Caliper/LabChip EZ Reader)
# Experimental Conditions: CDK2/Cyclin E1 0.5 nM, ATP 2 mM, 35 min at 27° C.
Test Readout: IC50

Compound: Cn1cc(-c2ccc3c(-c4nc(NC5CCCNC5)ncc4C(F)(F)F)c[nH]c3c2)cc1C#N (stereo not shown)
Assayed System: CDK2/Cyclin E1 complex (Homo sapiens)
IC50: 0.2 to 5 µM

Value lookup for IC50; key = Cn1cc(-c2ccc3c(-c4nc(NC5CCCNC5)ncc4C(F)(F)F)c[nH]c3c2)cn1 (stereo not shown) 0.2 to 5 µM

Now this one: CCc1cnc(NC2CCCNC2)nc1-c1c[nH]c2cc(C#N)ccc12 (stereo not shown) ≥ 5 µM

Moving on to COc1cnc(N[C@H]2CCCNC2)nc1-c1c[nH]c2ccccc12 ≥ 5 µM

----------
# Assayed System: CDK12 (aa686-1082)/Cyclin K complex (Homo sapiens, UniProt Q9NYV4)
# Construct: CDK12 (aa686-1082)/Cyclin K complex
# Sequence (Q9NYV4 686-1082): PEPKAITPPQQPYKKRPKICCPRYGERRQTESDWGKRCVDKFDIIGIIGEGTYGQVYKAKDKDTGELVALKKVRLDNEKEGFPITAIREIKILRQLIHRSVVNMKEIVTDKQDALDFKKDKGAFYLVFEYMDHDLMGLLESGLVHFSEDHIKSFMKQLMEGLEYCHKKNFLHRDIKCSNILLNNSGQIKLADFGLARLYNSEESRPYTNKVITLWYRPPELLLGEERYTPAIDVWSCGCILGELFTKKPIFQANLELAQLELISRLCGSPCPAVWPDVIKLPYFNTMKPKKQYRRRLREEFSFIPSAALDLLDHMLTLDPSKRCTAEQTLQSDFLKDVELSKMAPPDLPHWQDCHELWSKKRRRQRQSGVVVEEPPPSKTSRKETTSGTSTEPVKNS
# Sequence (O75909 whole entry partner, the tested form may be a part): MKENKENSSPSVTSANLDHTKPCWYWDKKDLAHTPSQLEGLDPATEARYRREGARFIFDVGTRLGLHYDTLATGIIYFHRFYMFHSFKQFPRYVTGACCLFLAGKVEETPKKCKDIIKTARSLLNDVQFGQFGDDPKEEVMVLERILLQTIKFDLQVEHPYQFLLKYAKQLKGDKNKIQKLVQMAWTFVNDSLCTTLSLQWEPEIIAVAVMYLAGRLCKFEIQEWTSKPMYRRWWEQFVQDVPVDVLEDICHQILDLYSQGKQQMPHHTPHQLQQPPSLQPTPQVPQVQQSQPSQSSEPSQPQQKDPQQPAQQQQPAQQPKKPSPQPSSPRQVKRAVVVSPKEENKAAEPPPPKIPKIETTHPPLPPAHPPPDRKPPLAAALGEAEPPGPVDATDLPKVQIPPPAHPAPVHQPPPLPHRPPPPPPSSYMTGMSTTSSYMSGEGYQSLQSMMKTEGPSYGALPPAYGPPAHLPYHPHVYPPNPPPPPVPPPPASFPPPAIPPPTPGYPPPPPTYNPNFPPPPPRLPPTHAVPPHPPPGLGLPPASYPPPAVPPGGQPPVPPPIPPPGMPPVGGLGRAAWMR
# Protocol Details: CDK12 kinase inhibition assay (Caliper/LabChip EZ Reader)
# Experimental Conditions: CDK12 (aa686-1082)/Cyclin K 50 nM, ATP 2 mM, 3 hr at 27° C.
# Protocol: Compounds of the invention were assayed for inhibition of CDK7, CDK9, CDK12, and CDK2 activity at Biortus Biosciences (Jiangyin, Jiangsu Province, P.R. of China) using kinase assays for each CDK developed with a Caliper/LabChip EZ Reader (Perkin Elmer, Waltham, Mass.). […]
Test Readout: IC50

Consider the reported IC50 for these molecules:
Molecule: COC1CCN(C(=O)c2ccc3c(-c4nc(NC5CCCNC5)ncc4C(F)(F)F)c[nH]c3c2)C1 (stereo not shown) [Compound 280]
Test Value: 0.2 to 5 µM

Molecule: FC(F)(F)c1cnc(NC2CNCC(c3nnc4ccccn34)C2)nc1-c1c[nH]c2ccccc12 (stereo not shown) [Compound 266]
Test Value: 0.2 to 5 µM

GET /values?readout=IC50&item= Clc1cnc(NC2CCCNC2)nc1-c1cn(-c2ccccc2)c2ccccc12 (stereo not shown) [Compound 132] ≥ 5 µM

Now the same for CN1CCC[C@H](Nc2ncc(C(F)(F)F)c(-c3c[nH]c4cc(S(C)(=O)=O)ccc34)n2)C1 [Compound 364] ≥ 5 µM

Then O=C(c1ccc2c(-c3nc(NC4CCCNC4)ncc3C(F)(F)F)c[nH]c2c1)N1CC(O)C(F)(F)C1 (stereo not shown) [Compound 308] ? 0.2 to 5 µM

Now consider CC1CCNCC1Nc1ncc(C(F)(F)F)c(-c2c[nH]c3ccccc23)n1 (stereo not shown) [Compound 373] . ≥ 5 µM

Item: CCc1cnc(N[C@H]2CCCNC2)nc1-c1c[nH]c2c(C)cccc12 [Compound 137] 0.2 to 5 µM

Try this molecule next: Cc1[nH]c2ccccc2c1-c1nc(NC2CCCNC2)ncc1Cl (stereo not shown) [Compound 106] 0.2 to 5 µM

----------
# Assayed System: CDK9/Cyclin T1 complex (Homo sapiens, UniProt P50750)
# Sequence (P50750 whole entry): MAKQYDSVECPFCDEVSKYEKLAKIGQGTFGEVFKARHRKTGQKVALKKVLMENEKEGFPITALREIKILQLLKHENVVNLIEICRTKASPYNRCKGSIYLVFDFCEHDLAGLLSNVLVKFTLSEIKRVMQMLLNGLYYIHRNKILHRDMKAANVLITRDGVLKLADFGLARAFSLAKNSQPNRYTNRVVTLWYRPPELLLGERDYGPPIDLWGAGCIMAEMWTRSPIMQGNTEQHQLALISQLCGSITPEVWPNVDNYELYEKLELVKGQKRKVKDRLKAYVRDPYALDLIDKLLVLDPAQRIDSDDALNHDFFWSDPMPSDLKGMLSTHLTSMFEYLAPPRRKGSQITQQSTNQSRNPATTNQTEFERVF
# Sequence (O60563 whole entry partner): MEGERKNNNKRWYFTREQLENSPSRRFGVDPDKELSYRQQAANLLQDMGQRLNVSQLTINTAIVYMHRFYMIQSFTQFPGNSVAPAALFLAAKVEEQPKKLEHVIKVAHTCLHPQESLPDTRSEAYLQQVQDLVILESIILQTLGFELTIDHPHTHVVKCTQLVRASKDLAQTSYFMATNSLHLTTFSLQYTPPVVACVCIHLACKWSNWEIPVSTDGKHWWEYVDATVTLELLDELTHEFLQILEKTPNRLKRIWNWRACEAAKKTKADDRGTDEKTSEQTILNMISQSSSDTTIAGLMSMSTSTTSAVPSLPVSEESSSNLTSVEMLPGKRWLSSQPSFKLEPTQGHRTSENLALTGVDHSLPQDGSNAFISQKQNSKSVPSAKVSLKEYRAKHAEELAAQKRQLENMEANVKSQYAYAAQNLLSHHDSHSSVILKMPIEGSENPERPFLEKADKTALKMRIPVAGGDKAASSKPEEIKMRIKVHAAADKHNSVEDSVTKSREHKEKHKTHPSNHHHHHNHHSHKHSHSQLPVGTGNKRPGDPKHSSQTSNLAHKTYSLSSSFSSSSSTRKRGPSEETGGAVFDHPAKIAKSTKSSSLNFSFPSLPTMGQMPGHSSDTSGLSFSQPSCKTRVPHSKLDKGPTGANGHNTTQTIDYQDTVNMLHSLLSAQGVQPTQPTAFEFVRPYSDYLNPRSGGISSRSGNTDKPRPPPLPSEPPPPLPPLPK
# Protocol Details: CDK9 kinase inhibition assay (Caliper/LabChip EZ Reader)
# Experimental Conditions: CDK9/Cyclin T1 8 nM, ATP 2 mM, 15 min at 27° C.
pIC50: −log10 of the molar value.
Test Readout: pIC50

Guide cases for pIC50, answers given:
Molecule: CC(O)c1cnc(NC2CCCNC2)nc1-c1c[nH]c2ccccc12 (stereo not shown) [Compound 234]
Test Readout: pIC50
Test Value: ≤ 5.30
//
Molecule: FC(F)(F)c1cnc(NC2CCCNC2)nc1-c1c[nH]c2cnc(Cl)cc12 (stereo not shown) [Compound 165]
Test Readout: pIC50
Test Value: 5.30 to 6.70
//
Molecule: FC(F)(F)Cc1cnc(N[C@H]2CCCNC2)nc1-c1c[nH]c2ccccc12 [Compound 158]
Test Readout: pIC50
Test Value: ≤ 5.30

May I ask what pIC50 has been recorded for CCc1cnc(N[C@H]2CCCNC2)nc1-c1c[nH]c2c(F)c(C#N)ccc12 [Compound 360] ? ≤ 5.30

Further, for CS(=O)(=O)c1c(C#N)ccc2c(-c3nc(NC4CCCNC4)ncc3Cl)c[nH]c12 (stereo not shown) [Compound 294] ? 5.30 to 6.70

Then what about the molecule FC(F)(F)c1cnc(N[C@H]2CCCNC2)nc1-c1c[nH]c2ccc(-c3ccnnc3)cc12 [Compound 230] ? 5.30 to 6.70

Ok, now CCN1CC(Nc2ncc(C(F)(F)F)c(-c3c[nH]c4cc(S(C)(=O)=O)ccc34)n2)CC(C)(C)C1 (stereo not shown) [Compound 369] ≤ 5.30
